assay: preservation of ATP in cytokine-treated beta cells – cell-based, ATP luminescence, single point, primary screen (AID 488910); conditions: INS-1E cytokine-induced death, 48 h, at 10 µM, stronger effect = higher value, normalised: neutral wells 0, positive control 100
Screen size: about 20,000 compounds; about 25 (0.1%) were called active. This excerpt belongs to a sample that is enriched for actives.
endpoint-label: protection from cytokine-induced ATP loss (%)
One number for each entry, in %.

input_smiles=C[C@@H]1CN([C@@H](C)CO)C(=O)c2cc(NC(=O)CCCN(C)C)ccc2O[C@H]1CN(C)Cc1ccccc1 endpoint_result=-3.08
input_smiles=Cc1cccc(CN(C)C[C@H]2OCc3cn(nn3)CCCC(=O)N([C@@H](C)CO)C[C@H]2C)c1 endpoint_result=-2.7
input_smiles=C[C@@H]1CN([C@H](C)CO)C(=O)Cc2cc(NC(=O)Cn3cnnn3)ccc2O[C@H]1CN(C)Cc1ccc(Cl)c(Cl)c1 endpoint_result=4.05

Measured protection from cytokine-induced ATP loss, C[C@H]1CN([C@@H](C)CO)C(=O)Cc2cc(NC(=O)Nc3cccc4ccccc34)ccc2O[C@@H]1CN(C)S(=O)(=O)c1cn(C)cn1 : 4.42
